target: CD45 (Homo sapiens); construct: incubating the cytosolic portion of CD45 with the compounds and p-nitrophenyl phosphate (pNPP); purchased BIOMOL (Plymouth Meeting, Pa.); test: Phosphatase assay using pNPP as substrate; format: biochemical; conditions: CD45 phosphatase, pNPP substrate, pH 7.0; read-out: pNPP IC50
Sequence (P08575 599-1306 limits assumed): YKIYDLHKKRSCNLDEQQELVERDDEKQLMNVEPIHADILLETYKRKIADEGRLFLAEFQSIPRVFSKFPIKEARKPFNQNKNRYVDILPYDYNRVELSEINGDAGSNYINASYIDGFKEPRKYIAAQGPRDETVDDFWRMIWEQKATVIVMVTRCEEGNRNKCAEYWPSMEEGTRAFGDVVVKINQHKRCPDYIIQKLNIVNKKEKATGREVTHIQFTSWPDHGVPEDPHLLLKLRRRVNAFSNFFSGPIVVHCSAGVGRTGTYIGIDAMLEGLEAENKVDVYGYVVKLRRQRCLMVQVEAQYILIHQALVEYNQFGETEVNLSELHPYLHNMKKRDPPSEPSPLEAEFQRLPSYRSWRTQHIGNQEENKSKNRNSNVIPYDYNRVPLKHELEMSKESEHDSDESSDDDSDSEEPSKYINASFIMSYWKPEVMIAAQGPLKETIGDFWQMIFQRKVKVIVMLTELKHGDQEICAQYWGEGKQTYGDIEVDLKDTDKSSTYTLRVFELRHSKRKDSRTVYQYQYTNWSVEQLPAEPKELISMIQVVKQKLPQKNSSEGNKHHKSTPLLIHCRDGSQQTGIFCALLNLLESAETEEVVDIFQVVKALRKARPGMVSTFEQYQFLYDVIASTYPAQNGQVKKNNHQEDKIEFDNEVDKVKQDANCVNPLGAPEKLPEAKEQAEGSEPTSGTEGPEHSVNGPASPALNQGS
Label Yes when IC50 is strictly below 500 nM; otherwise label No.

Q: Lab note: confirm whether the reported IC50 for this molecule is below 500 nM, equality not counting. molecule: CC(C)(C)C(=O)Nc1ccc2c(c1)-c1ccccc1C(=O)C2=O
Result: No

Q: Input COC(=O)CCC(=O)Nc1ccc2c(c1)C(=O)C(=O)c1cccc([N+](=O)[O-])c1-2 ; condition: IC50 strictly below 500 nM. Does it hold?
Result: No

Q: For COC(=O)CCC(=O)Nc1ccc2c(c1)-c1ccccc1C(=O)C2=O , is the recorded IC50 below the cut-off of 500 nM?
Result: Yes

Q: Below 500 nM on IC50? Entry Nc1ccc2c(c1)C(=O)C(=O)c1ccccc1-2
Result: Yes

Q: Does the reported IC50 of COC(=O)CCCC(=O)Nc1ccc2c(c1)C(=O)C(=O)c1ccccc1-2 stay below 500 nM?
Result: Yes

Q: IC50 strictly < 500 nM for this molecule? COC(=O)CCCCCCCCC(=O)Nc1cccc2c1-c1ccccc1C(=O)C2=O
Result: No

Q: Field: below-cutoff. Rule: recorded IC50 strictly less than 500 nM. Subject: O=C1C(=O)c2cc([N+](=O)[O-])ccc2-c2ccccc21
Result: No

The measurements presented in this section are drawn from patent US20030207812A1.
